# System: 616215-338-R-J1-PDC complex spheroid viability
# method_summary: Anticancer human tumor 616215-338-R-J1-PDC patient-derived colon adenocarcinoma cell line growth inhibition [RAS]
# condition_set: second compound 0.00949 µM; first compound 0.00316 µM; stronger effect = lower value
# Text: RAS pathway inhibitors in Combinations in Complex Spheroids A high-throughput screen of multi-cell type tumor spheroids was designed to identify active combinations of RAS pathway inhibitors and targeted small molecules. Complex spheroids include a stromal component modeled by human endothelial cells (HUVEC) and fibroblasts modeled by human mesenchymal stem cells (MSCs). […] Compounds. […] If the clinical Cmax for an agent had not been determined, the highest concentration tested was 10 microM. […]
metric_name: viability, T/C (%)
// units = %; emit number, no label

Nc1ccn(C2OC(CO)C(O)C2(F)F)c(=O)n1 (centres undefined) + CCn1c(-c2cc(N3CCN(C)CC3)cnc2C(C)OC)c2c3cc(ccc31)-c1csc(n1)CC(NC(=O)C1CC1C)C(=O)N1CCCC(N1)C(=O)OCC(C)(C)C2 | 52.9
C=CC(=O)N1CCN(c2nc(OCC3CCCN3C)nc3c(F)c(-c4nc(N)cc(C)c4C(F)(F)F)c(Cl)cc23)C(C)C1 (centres undefined) + CCn1c(-c2cc(N3CCN(C)CC3)cnc2C(C)OC)c2c3cc(ccc31)-c1csc(n1)CC(NC(=O)C1CC1C)C(=O)N1CCCC(N1)C(=O)OCC(C)(C)C2 | 87.8
CC(C)n1nc(-c2ccc3oc(N)nc3c2)c2c(N)ncnc21 + CCn1c(-c2cc(N3CCN(C)CC3)cnc2C(C)OC)c2c3cc(ccc31)-c1csc(n1)CC(NC(=O)C1CC1C)C(=O)N1CCCC(N1)C(=O)OCC(C)(C)C2 | 64.5

# value lookup — system 616215-338-R-J1-PDC complex spheroid viability, readout viability, T/C, item CCN1CCN(Cc2ccc(Nc3ncc(F)c(-c4cc(F)c5nc(C)n(C(C)C)c5c4)n3)nc2)CC1 + CCn1c(-c2cccnc2C(C)OC)c2c3cc(ccc31)N1CCOC(CC(NC(=O)C(C(C)C)N(C)C(=O)C3(F)CCN(C(=O)C#CC(C)(C)N(C)C)CC3)C(=O)N3CCCC(N3)C(=O)OCC(C)(C)C2)C1 102

###

# Test system: 616215-338-R-J1-PDC complex spheroid viability
# method_summary: Anticancer human tumor 616215-338-R-J1-PDC cell line growth inhibition [RAS];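 note: spheroids exposed to agents for seven days before viability readout; 100% = DMSO vehicle control viability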
# condition_set: second compound 0.1 µM; first compound 3.16 µM; stronger effect = lower value
Catalogue of viability, T/C values
// units = %; emit number, no label

Examples from the recorded data:
C[C@@H](NC(=O)c1ncnc(N)c1Cl)c1ncc(C(=O)Nc2cc(C(F)(F)F)c(Cl)cn2)s1 + C#Cc1c(F)ccc2cc(O)cc(-c3ncc4c(N5CC6CCC(C5)N6)nc(OCC56CCCN5CC(F)C6)nc4c3F)c12 | 90.8
CC(Nc1ccc2c(c1)OCCn1cc(N3C(=O)OCC3C(F)F)nc1-2)C(N)=O (configuration not stated) + C=CC(=O)N1CCN(c2nc(OCC3CCCN3C)nc3c(F)c(-c4nc(N)cc(C)c4C(F)(F)F)c(Cl)cc23)C(C)C1 | 101
NC1c2ccccc2OC12CCN(c1cnc3c(N4CCCc5ncccc54)n[nH]c3n1)CC2 (configuration not stated) + C=CC(=O)N1CCN(c2nc(OCC3CCCN3C)nc3c(F)c(-c4nc(N)cc(C)c4C(F)(F)F)c(Cl)cc23)C(C)C1 | 64.7
Cc1nc(N2CCC3(CC2)COC(C)C3N)c(CO)nc1Sc1ccnc(N)c1Cl (configuration not stated) + C#Cc1c(F)ccc2cc(O)cc(-c3ncc4c(N5CC6CCC(C5)N6)nc(OCC56CCCN5CC(F)C6)nc4c3F)c12 | 68
CC(C)NCC(C(=O)N1CCN(c2ncnc3c2C(C)CC3O)CC1)c1ccc(Cl)cc1 (configuration not stated) + C#Cc1c(F)ccc2cc(O)cc(-c3ncc4c(N5CC6CCC(C5)N6)nc(OCC56CCCN5CC(F)C6)nc4c3F)c12 | 91.8
Cc1nc(N2CCC3(CC2)COC(C)C3N)c(CO)nc1Sc1ccnc(N)c1Cl (configuration not stated) + C=CC(=O)N1CCN(c2nc(OCC3CCCN3C)nc3c(F)c(-c4nc(N)cc(C)c4C(F)(F)F)c(Cl)cc23)C(C)C1 | 97.3

Here's the next entry for you.
# value lookup — system 616215-338-R-J1-PDC complex spheroid viability, readout viability, T/C, item CCC(CC)c1cc(NC2CCC(N)C2)n2nccc2n1 (configuration not stated) + C#Cc1c(F)ccc2cc(O)cc(-c3ncc4c(N5CC6CCC(C5)N6)nc(OCC56CCCN5CC(F)C6)nc4c3F)c12 0.27
